- Tested on: SNB-78
- ASSAY NOTES: NCI tumour cell line growth inhibition, 48 h
The source made the active and inactive calls. Cut-off read from the data, not from the text of the source: active = GI50 up to about 1.1 µM and inactive = higher.
OBSERVED PROPERTY: GI50

• C/C=C/C=C/c1cc2cc3c(c(O)c2c(=O)[nH]1)C1(CC3)C(=O)c2c(O)c3c(c(O)c2C1=O)C(=O)C(OC)=CC3=O (stereo unspecified) = 4.11 µM (inactive)
• O=C(/C=C/c1ccc(-c2ccccc2)cc1)c1ccccc1 = 29 µM (inactive)
• COc1cc2c(cc1OC)[C@]1(O)C(=O)c3ccc4c(c3O[C@@H]1CO2)C[C@H](C(C)(C)O)O4 = > 100 µM (inactive)
• CC(Oc1ccc(OCC2CCCCC2)cc1)C(=O)OCC(=O)c1ccc(-c2ccccc2)cc1 (stereo unspecified) = > 100 µM (inactive)
• Cc1cc2c(=O)cc(-c3ccncc3)oc2c(C(N)=O)c1C = > 100 µM (inactive)
• N#CC(NNC(=O)Cc1ccccc1)c1ccc([N+](=O)[O-])cc1 (stereo unspecified) = > 100 µM (inactive)

---

- System: NCI-H460
- ASSAY NOTES: NCI tumour cell line growth inhibition, 48 h
Activity calls are given as the source filed them. Cut-off read from the data, not from the text of the source: active = GI50 up to about 1.1 µM and inactive = higher.
Labels: active, inactive

• O=C(Cc1ccccc1[N+](=O)[O-])C(CO)c1ccccc1[N+](=O)[O-] (stereo unspecified) = inactive
• COc1cc2c(c(OC)c1OC)-c1c(cc3c(c1OC)OCO3)CC(C)C(C)(O)C2OC(=O)c1ccccc1 (stereo unspecified) = inactive
• CC1=C(C(=O)O)N2C(=O)[C@@H](NC(=O)C(c3ccccc3)N3CSC(=S)N(C(C)C)C3)C2SC1 (stereo partly specified) = inactive
• CSc1c(C#N)c(=O)[nH]c2[nH]nc(C)c12 = inactive
• Cc1cc(N(CCOS(C)(=O)=O)CCOS(C)(=O)=O)ccc1C=O = active
• CC(C)(CO)N1CCN(C(S)=Nc2ccccc2)CC1 = inactive

---

- Test system: CCRF-CEM
- ASSAY NOTES: NCI tumour cell line growth inhibition, 48 h
Active and inactive are the calls of the source. Cut-off read from the data, not from the text of the source: active = GI50 up to about 1.1 µM and inactive = higher.
Labels: y for active, n for inactive

• CCOC(=O)C(C)c1nc2ccc(C(F)(F)F)cc2[nH]c1=O (stereo not given) = n
• c1ccc(C(=NNc2nc3ccccc3[nH]2)c2ccccn2)nc1 = y
• Cc1ccc(Nc2cn(COCc3ccccc3)c(=O)[nH]c2=O)cc1 = n
• O=C1Nc2ccccc2/C1=C/c1c(Cl)[nH]c2ccc(O)cc12 = n
• Cc1cc(OCc2nnc3sc(NC(=O)c4ccccc4)nn23)ccc1Cl = n

---

- Test system: MDA-N
- ASSAY NOTES: NCI tumour cell line growth inhibition, 48 h
The source made the active and inactive calls. Rule as the data show it: active = GI50 up to about 1.1 µM and inactive = higher.
Labels: active, inactive

- CC1(C)CC(=O)c2c(N)n[nH]c2C1: inactive
- CC(C)Cc1ccc(C(C)/C=C2\CCC(CN3CCCCC3)C2=O)cc1 (stereo unspecified): inactive
- c1ccc(Nc2nnc(Cn3ccc4ccccc43)s2)cc1: inactive
- CCOC(=O)NC(N(C)C(C(C)C)P(=O)(OCC)OCC)(C(F)(F)F)C(F)(F)F (stereo unspecified): inactive
- CC1(c2sccc2Cl)CC(c2sccc2Cl)=C(C#N)C(=C(C#N)C#N)N1 (stereo unspecified): inactive
- C/C(=C\C(=N\NC(=N)N)c1ccccc1)c1ccccc1: active

---

- Tested on: NCI-H23
- ASSAY NOTES: NCI tumour cell line growth inhibition, 48 h
Calls of active or inactive are those of the source. Rule as the data show it: active = GI50 up to about 1.1 µM and inactive = higher.
OBSERVED PROPERTY: GI50

• O=C(O)c1nc2cc(C(F)(F)F)ccc2[nH]c1=O = > 100 µM (inactive)
• COc1ccc2[nH]c3c(c2c1)CCc1c(OC)cccc1-3 = > 100 µM (inactive)
• C[C@H]1CC[C@@]2(OC1)O[C@H]1C[C@H]3[C@@H]4CC[C@@H]5C[C@@H](OC6OC(CO)C(O)C(O)C6OC6OC(CO)C(O)C(O)C6O)CC[C@]5(C)[C@H]4CC[C@]3(C)[C@H]1[C@@H]2C (some centres undefined) = 2.31 µM (inactive)
• O=C(O)Cn1ccc(=O)c2c([N+](=O)[O-])cccc21 = > 100 µM (inactive)

---

- Tested on: OVCAR-5
- ASSAY NOTES: NCI tumour cell line growth inhibition, 48 h
The source made the active and inactive calls. Cut-off read from the data, not from the text of the source: active = GI50 up to about 1.1 µM and inactive = higher.
OBSERVED PROPERTY: GI50

• CC(=O)CC1CCC(=O)CCC(=O)OC(CC(C)=O)CCC(=O)CCC(=O)O1 (stereo not drawn) = > 100 µM (inactive)
• Br/C(=N\N=c1/nn[nH][nH]1)c1ccncc1 = > 100 µM (inactive)
• COc1ccc(/C=N\N2C(=O)Cc3ccccc32)cc1 = > 100 µM (inactive)
• COC(=O)CCc1ccc2c(c1)CC1(C2)Cc2ccc3c(c2C1)CCC3 (stereo not drawn) = > 10 µM (inactive)
• CSC1=C(C)S/C(=C\c2ccc(/C=C3\SC(C)=C(SC)S3)cc2)S1 = > 100 µM (inactive)
• O=C(CN(Cc1ccccc1)Cc1ccccc1)N1CCc2c([nH]c3ccccc23)C1c1cccnc1 (stereo not drawn) = 7.38 µM (inactive)
• COc1ccc2c3c([nH]c2c1[N+](=O)[O-])C(C)=NCC3 = 61 µM (inactive)
• COc1ccccc1NC(=O)CC(=O)N1N=C(N2c3ccccc3Sc3ccccc32)CC1c1ccccc1 (stereo not drawn) = > 100 µM (inactive)

---

- Test system: MOLT-4
- ASSAY NOTES: NCI tumour cell line growth inhibition, 48 h
Active and inactive are the calls of the source. Rule as the data show it: active = GI50 up to about 1.1 µM and inactive = higher.
OBSERVED PROPERTY: GI50

• CCCCCCCCOC(=O)C12Oc3ccc(-c4ccc5c(c4O)C(=O)C4=C(O)CC(C)C(O)C4(C(=O)OCCCCCCCC)O5)c(O)c3C(=O)C1=C(O)CC(C)C2O (stereo not drawn) = 16.3 µM (inactive)
• C/C(=N\Nc1ccc([N+](=O)[O-])cc1[N+](=O)[O-])c1ccc2ccccc2n1 = > 100 µM (inactive)
• C=C(Cl)C(Cl)(CBr)CCCC(C)C (stereo not drawn) = > 100 µM (inactive)
• COc1ccc(C(C#N)Cc2cc(OC)c(OC)c(OC)c2)cc1 (stereo not drawn) = 28.2 µM (inactive)
• O=C(Cc1ccccc1[N+](=O)[O-])C(CO)c1ccccc1[N+](=O)[O-] (stereo not drawn) = 35.7 µM (inactive)
• N#CC1=C(N)OC(c2ccc([N+](=O)[O-])cc2)C1(C#N)C#N (stereo not drawn) = 33.7 µM (inactive)
• CC(=O)C1(c2ccccc2)CCN(Cn2sc3nc(C)cc(C)c3c2=O)CC1 = 27.7 µM (inactive)
• O=C(CCC(=O)Nc1ccc(Cl)cc1)CC(=O)c1ccc(F)cc1 = > 100 µM (inactive)

---

- Test system: HCT-116
- ASSAY NOTES: NCI tumour cell line growth inhibition, 48 h
Where a name gives a salt, the structure may show the parent alone. Active and inactive are the calls of the source. No stated cut-off is given here; in the data, active = GI50 up to about 1.1 µM and inactive = higher.
Labels: true = active, false = inactive

- Cc1cc(N(CCC#N)CCC#N)ccc1/C=C1N=C(/C=C\c2ccccc2)N(NC(=O)CC(=O)Nc2ccccc2Cl)C\1=O: false
- COc1ccc(NC(=O)C(=O)C(C(=O)c2ccccc2)C2OC(=O)c3ccccc32)c([N+](=O)[O-])c1 (configuration not stated): false
- O=C(Nc1cc2c(=O)[nH]c3ccccc3c2oc1=O)c1cnccn1: false
- BrCCCCCOc1ccc(-c2c3ccccc3c(-c3ccc(OCCCCCBr)cc3)c3ccccc23)cc1: false
- Nc1nc(CCl)nc(N2CCOCC2)n1: false
- CC(Oc1ccc(OCC2CCCCC2)cc1)C(=O)OCC(=O)c1ccc(-c2ccccc2)cc1 (configuration not stated): false
- CC(=O)NNc1nc(C)c(C(=O)NNC(=O)C(=O)Nc2ccc([N+](=O)[O-])cc2[N+](=O)[O-])s1: false
- COC1OC(OC)C2C(c3c(C)cc(C)cc3C)=NOC12 (configuration not stated): false
- CCOC(=O)c1cn(CC)c(=O)n2c1nc1ccccc12: false
- Cc1cccc(/C=N/NC(=S)N2CCCC2)n1: true
- CCC/C(=N/NC(=O)C(N)=O)C(CC)C(=O)CCC(=O)N(Cc1ccccc1)Cc1ccccc1 (configuration not stated): false
- COc1ccc(-c2nc3cc(F)ccc3s2)cc1O: false
- O=C1C2=C(SCCS2)C(=O)c2ccccc21: false
- CNc1nc2c(C)ccc3nc(N(C)C)[nH]c3c-2n1: false
- COc1ccc(/N=N/c2c(O)ccc3ccccc23)cc1: false
- NCCc1cc(O)c(O)cc1O [OXIDOPAMINE HYDROCHLORIDE]: false
- COC(=O)/C=C/c1ccc2c(c1)[C@H](C(=O)OC)[C@@H](c1ccc(O)cc1)O2: false
- C/C(=C\C(=N\NC(=N)N)c1ccccc1)c1ccccc1: true
- CCCCCc1c(CCCC)c(=O)[nH]c2cc(CNCC(OC)OC)ccc12: false
- CCn1c(=O)c2c3ccc(OC(C)=O)cc3[nH]c2c2ccc(OC(C)=O)cc21: false
- Fc1cc(-c2ncc(Cl)cc2Cl)c2cccccc1-2: false
- NC(=S)NS(=O)(=O)c1ccc(Cl)cc1: false
- O=C(O)CCc1nn2c(nc1=O)sc1ccc3ccccc3c12: false
- COC(=O)/C(=N\Nc1nnc(C)n1N)C(C#N)c1ccc(Cl)cc1 (configuration not stated): false
- CC1=CCC[C@H]2[C@](C)(CC3=CC(=O)C(Sc4ccccc4)=CC3=O)[C@@H](C)CC[C@]12C: false
- CC(C)Cc1ccc(C(C)/C=C2\CCC(CN3CCCCC3)C2=O)cc1 (configuration not stated): false
- COc1ccc(C(C#N)Cc2cc(OC)c(OC)c(OC)c2)cc1 (configuration not stated): false
- CC(C)=NOC(=O)CNC(=O)C(Cc1ccccc1)NC(=O)C(C)NC(=O)OC(C)(C)C (configuration not stated): false
- N#Cc1c(=O)c2ccccc2n2ccccc12: false
- COc1ccc(/C=C\c2cc(OC)c(O[Si](C)(C)C(C)(C)C)c(OC)c2)cc1: false
- COc1cccc2[s+]snc12: false
- CO/N=C(\C(=O)N(C)n1cnnc1)c1csc(NC(c2ccccc2)(c2ccccc2)c2ccccc2)n1: false
